experiment_notes: Tumor uptake and tissue distribution in mice bearing SJSA-1 xenografts
Assay type: in vivo, athymic mice
measurement_context: athymic, mouse, tumor, iv, 166.5 kBq, total radioactivity
measured_metric: tissue uptake at 2 h (%ID/g)
Hi! Could you send only the number? It should be in %ID/g, unit omitted.

Which tissue uptake at 2 h value belongs to CC(=O)N[C@@H](CCCCNC(=O)c1cccc(I)c1)C(=O)NCCCCCC(=O)N[C@H](C(=O)N[C@@H](CO)C(=O)N[C@@H](Cc1ccccc1)C(=O)N[C@]1(C)CCCCCCC=CCCC[C@@](C)(C(=O)N[C@@H](CCC(=O)O)C(=O)N[C@@H](CC(N)=O)C(=O)N[C@@H](Cc2ccccc2)C(N)=O)NC(=O)[C@H](CC(C)C)NC(=O)[C@H](CC(C)C)NC(=O)[C@H](C)NC(=O)[C@H](Cc2c[nH]c3ccccc23)NC(=O)[C@H](Cc2ccc(O)cc2)NC(=O)[C@H](CCC(=O)O)NC1=O)[C@@H](C)O [[*I]SIB-VIP116] ?
2.19

###

experiment_notes: Tumor uptake and tissue distribution in mice bearing SJSA-1 xenografts
Assay type: in vivo, athymic mice
measurement_context: athymic, mouse, bladder, iv, 166.5 kBq, total radioactivity
measured_metric: tissue uptake at 24 h (%ID/g)
Please give a number only; it is taken to be in %ID/g.

Can you look up the measured tissue uptake at 24 h of CC(=O)N[C@@H](CCCCNC(=O)c1cccc(I)c1)C(=O)NCCCCCC(=O)N[C@H](C(=O)N[C@@H](CO)C(=O)N[C@@H](Cc1ccccc1)C(=O)N[C@]1(C)CCCCCCC=CCCC[C@@](C)(C(=O)N[C@@H](CCC(=O)O)C(=O)N[C@@H](CC(N)=O)C(=O)N[C@@H](Cc2ccccc2)C(N)=O)NC(=O)[C@H](CC(C)C)NC(=O)[C@H](CC(C)C)NC(=O)[C@H](C)NC(=O)[C@H](Cc2c[nH]c3ccccc23)NC(=O)[C@H](Cc2ccc(O)cc2)NC(=O)[C@H](CCC(=O)O)NC1=O)[C@@H](C)O [[^125I]SIB-VIP116] for me?
0.29

###

experiment_notes: Tumor uptake and tissue distribution in mice bearing SJSA-1 xenografts
Assay type: in vivo, athymic mice
measurement_context: athymic, mouse, spleen, iv, 166.5 kBq, total radioactivity
measured_metric: tissue uptake at 2 h (%ID/g)
Please respond with the number in %ID/g and leave the unit unwritten.

Consider the compound CC(=O)N[C@@H](CCCCNC(=O)c1cccc(I)c1)C(=O)NCCCCCC(=O)N[C@H](C(=O)N[C@@H](CO)C(=O)N[C@@H](Cc1ccccc1)C(=O)N[C@]1(C)CCCCCCC=CCCC[C@@](C)(C(=O)N[C@@H](CCC(=O)O)C(=O)N[C@@H](CC(N)=O)C(=O)N[C@@H](Cc2ccccc2)C(N)=O)NC(=O)[C@H](CC(C)C)NC(=O)[C@H](CC(C)C)NC(=O)[C@H](C)NC(=O)[C@H](Cc2c[nH]c3ccccc23)NC(=O)[C@H](Cc2ccc(O)cc2)NC(=O)[C@H](CCC(=O)O)NC1=O)[C@@H](C)O [[^125I]SIB-VIP116] and give its measured tissue uptake at 2 h.
1.8

###

experiment_notes: Tumor uptake and tissue distribution in mice bearing SJSA-1 xenografts
Format: in vivo, athymic mice
measurement_context: athymic, mouse, heart, iv, 166.5 kBq, total radioactivity
measured_metric: tissue uptake at 6 h (%ID/g)
// units = %ID/g; emit number, no label

What measured tissue uptake at 6 h goes with CC(=O)N[C@@H](CCCCNC(=O)c1cccc(I)c1)C(=O)NCCCCCC(=O)N[C@H](C(=O)N[C@@H](CO)C(=O)N[C@@H](Cc1ccccc1)C(=O)N[C@]1(C)CCCCCCC=CCCC[C@@](C)(C(=O)N[C@@H](CCC(=O)O)C(=O)N[C@@H](CC(N)=O)C(=O)N[C@@H](Cc2ccccc2)C(N)=O)NC(=O)[C@H](CC(C)C)NC(=O)[C@H](CC(C)C)NC(=O)[C@H](C)NC(=O)[C@H](Cc2c[nH]c3ccccc23)NC(=O)[C@H](Cc2ccc(O)cc2)NC(=O)[C@H](CCC(=O)O)NC1=O)[C@@H](C)O [[^125I]SIB-VIP116] ?
2.14

###

experiment_notes: Tumor uptake and tissue distribution in mice bearing SJSA-1 xenografts
Type: in vivo, athymic mice
measurement_context: athymic, mouse, spleen, iv, 166.5 kBq, total radioactivity
measured_metric: tissue uptake at 24 h (%ID/g)
Entry rule: numbers only, all in %ID/g.

# query: tissue uptake at 24 h of entry CC(=O)N[C@@H](CCCCNC(=O)c1cccc(I)c1)C(=O)NCCCCCC(=O)N[C@H](C(=O)N[C@@H](CO)C(=O)N[C@@H](Cc1ccccc1)C(=O)N[C@]1(C)CCCCCCC=CCCC[C@@](C)(C(=O)N[C@@H](CCC(=O)O)C(=O)N[C@@H](CC(N)=O)C(=O)N[C@@H](Cc2ccccc2)C(N)=O)NC(=O)[C@H](CC(C)C)NC(=O)[C@H](CC(C)C)NC(=O)[C@H](C)NC(=O)[C@H](Cc2c[nH]c3ccccc23)NC(=O)[C@H](Cc2ccc(O)cc2)NC(=O)[C@H](CCC(=O)O)NC1=O)[C@@H](C)O [[^125I]SIB-VIP116]
0.58

###

experiment_notes: Tumor uptake and tissue distribution in mice bearing SJSA-1 xenografts
Assay type: in vivo, athymic mice
measurement_context: athymic, mouse, lungs, iv, 166.5 kBq, total radioactivity
measured_metric: tissue uptake at 0.5 h (%ID/g)
// units = %ID/g; emit number, no label

Which tissue uptake at 0.5 h is reported for this molecule? CC(=O)N[C@@H](CCCCNC(=O)c1cccc(I)c1)C(=O)NCCCCCC(=O)N[C@H](C(=O)N[C@@H](CO)C(=O)N[C@@H](Cc1ccccc1)C(=O)N[C@]1(C)CCCCCCC=CCCC[C@@](C)(C(=O)N[C@@H](CCC(=O)O)C(=O)N[C@@H](CC(N)=O)C(=O)N[C@@H](Cc2ccccc2)C(N)=O)NC(=O)[C@H](CC(C)C)NC(=O)[C@H](CC(C)C)NC(=O)[C@H](C)NC(=O)[C@H](Cc2c[nH]c3ccccc23)NC(=O)[C@H](Cc2ccc(O)cc2)NC(=O)[C@H](CCC(=O)O)NC1=O)[C@@H](C)O [[^125I]SIB-VIP116]
4.27

###

experiment_notes: Tumor uptake and tissue distribution in mice bearing SJSA-1 xenografts
Assay type: in vivo, athymic mice
measurement_context: athymic, mouse, muscle, iv, 166.5 kBq, total radioactivity
measured_metric: tissue uptake at 24 h
Returns: string containing the numeric result and its unit.

Which tissue uptake at 24 h is reported for this molecule? CC(=O)N[C@@H](CCCCNC(=O)c1cccc(I)c1)C(=O)NCCCCCC(=O)N[C@H](C(=O)N[C@@H](CO)C(=O)N[C@@H](Cc1ccccc1)C(=O)N[C@]1(C)CCCCCCC=CCCC[C@@](C)(C(=O)N[C@@H](CCC(=O)O)C(=O)N[C@@H](CC(N)=O)C(=O)N[C@@H](Cc2ccccc2)C(N)=O)NC(=O)[C@H](CC(C)C)NC(=O)[C@H](CC(C)C)NC(=O)[C@H](C)NC(=O)[C@H](Cc2c[nH]c3ccccc23)NC(=O)[C@H](Cc2ccc(O)cc2)NC(=O)[C@H](CCC(=O)O)NC1=O)[C@@H](C)O [[^125I]SIB-VIP116]
0.16 %ID/g

###

experiment_notes: Tumor uptake and tissue distribution in mice bearing SJSA-1 xenografts
Type: in vivo, athymic mice
measurement_context: athymic, mouse, bladder, iv, 166.5 kBq, total radioactivity
measured_metric: tissue uptake at 6 h (%ID/g)
Give the value in %ID/g but do not write %ID/g after it.

For CC(=O)N[C@@H](CCCCNC(=O)c1cccc(I)c1)C(=O)NCCCCCC(=O)N[C@H](C(=O)N[C@@H](CO)C(=O)N[C@@H](Cc1ccccc1)C(=O)N[C@]1(C)CCCCCCC=CCCC[C@@](C)(C(=O)N[C@@H](CCC(=O)O)C(=O)N[C@@H](CC(N)=O)C(=O)N[C@@H](Cc2ccccc2)C(N)=O)NC(=O)[C@H](CC(C)C)NC(=O)[C@H](CC(C)C)NC(=O)[C@H](C)NC(=O)[C@H](Cc2c[nH]c3ccccc23)NC(=O)[C@H](Cc2ccc(O)cc2)NC(=O)[C@H](CCC(=O)O)NC1=O)[C@@H](C)O [[^125I]SIB-VIP116] , what is its reported tissue uptake at 6 h?
0.95

###

experiment_notes: Tumor uptake and tissue distribution in mice bearing SJSA-1 xenografts
Type: in vivo, athymic mice
measurement_context: athymic, mouse, muscle, iv, 166.5 kBq, total radioactivity
measured_metric: tissue uptake at 6 h (%ID/g)
Numeric answer only, unit %ID/g assumed.

What value of tissue uptake at 6 h has been recorded for this entry: CC(=O)N[C@@H](CCCCNC(=O)c1cccc(I)c1)C(=O)NCCCCCC(=O)N[C@H](C(=O)N[C@@H](CO)C(=O)N[C@@H](Cc1ccccc1)C(=O)N[C@]1(C)CCCCCCC=CCCC[C@@](C)(C(=O)N[C@@H](CCC(=O)O)C(=O)N[C@@H](CC(N)=O)C(=O)N[C@@H](Cc2ccccc2)C(N)=O)NC(=O)[C@H](CC(C)C)NC(=O)[C@H](CC(C)C)NC(=O)[C@H](C)NC(=O)[C@H](Cc2c[nH]c3ccccc23)NC(=O)[C@H](Cc2ccc(O)cc2)NC(=O)[C@H](CCC(=O)O)NC1=O)[C@@H](C)O [[^125I]SIB-VIP116]
0.25

Hello, the source for this data is paper PMC9940446, in case you need it.
